- Test system: primary porcine kidney cells (PKC)
- PROCEDURE TEXT: MTT reduction cytotoxicity assay in PKC
- ASSAY SETUP: read-out: EC50 (cytotoxicity); PKC, MTT, 48 hours of exposure, 1-500 μM, positive control
MEASURED PARAMETER: pEC50
Just the number, please; pEC50 means minus log10 of the concentration in mol/L.

Suppose we examine the compound [Cl][Cd][Cl] [cadmium chloride] ; what pEC50 value has been reported?
4.24

---

- Tested on: primary porcine kidney cells (PKC)
- PROCEDURE TEXT: MTT reduction cytotoxicity assay in PKC
- ASSAY SETUP: read-out: EC50 (cytotoxicity); PKC, MTT, 24 hours of exposure, 1-500 μM, positive control
MEASURED PARAMETER: EC50 (µM)
Report only the number, with the unit µM understood.

Suppose we examine the compound [Cl][Cd][Cl] [cadmium chloride] ; what EC50 value has been reported?
103
